- Tested on: SARS-COV-2 Brazilian variant (P.1)
Ends that are not written are not given here.
REPORTED_ENDPOINT: IC50 (µM)
Provide only the numeric value, understood in µM.

IN: Find the measured IC50 of DKEWILQKIYEIMRRLDEEGHAEASMRVSDLIYEFMKKD [Ce9] and report it.
OUT: 1.2
